target: His6-p37AUF1 wt (human, UniProt Q14103-4 1-287); assay: fluorescence anisotropy; first site (Kd1), 50 mM KCl; Anisotropy: 10 mM Tris-HCl pH 8.0, 100 mM KCl (50 mM for Fl-ARE2), 0.5 mM EDTA, 0.1 ug/ul acetylated BSA, 1 ug/ul heparin, 2 mM DTT, 25 C, RNA 0.2-0.4 nM; EMSA: same with 100 mM KCl, 10% glycerol, 1 nM RNA, on ice, UV crosslinked; details: protein: recombinant; chain copies: 2; label: 5' fluorescein
Sequence (Q14103 other isoform, or with tags, fused parts or gaps): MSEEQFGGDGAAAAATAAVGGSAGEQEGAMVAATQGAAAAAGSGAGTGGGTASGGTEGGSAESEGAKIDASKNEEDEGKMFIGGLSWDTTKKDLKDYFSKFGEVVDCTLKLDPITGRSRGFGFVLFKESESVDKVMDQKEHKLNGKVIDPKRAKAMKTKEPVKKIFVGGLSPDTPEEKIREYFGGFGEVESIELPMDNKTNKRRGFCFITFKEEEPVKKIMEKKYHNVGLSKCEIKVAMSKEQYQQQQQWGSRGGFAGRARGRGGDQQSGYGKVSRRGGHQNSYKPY
pKd: −log10 of the molar value.
QUANTITY_KIND: pKd

INSERT INTO measurements (binder, quantity_kind, readout_number) VALUES
  ('GUGAUUAUUUAUUAUUUAUUUAUUAUUUAUUUAUUUAG (ssRNA) [Fl-ARE2]', 'pKd', 7.80);
